# assayTarget: Tyrosine-protein kinase ABL1 (Homo sapiens) (UniProt P00519)
# Sequence (P00519 whole entry): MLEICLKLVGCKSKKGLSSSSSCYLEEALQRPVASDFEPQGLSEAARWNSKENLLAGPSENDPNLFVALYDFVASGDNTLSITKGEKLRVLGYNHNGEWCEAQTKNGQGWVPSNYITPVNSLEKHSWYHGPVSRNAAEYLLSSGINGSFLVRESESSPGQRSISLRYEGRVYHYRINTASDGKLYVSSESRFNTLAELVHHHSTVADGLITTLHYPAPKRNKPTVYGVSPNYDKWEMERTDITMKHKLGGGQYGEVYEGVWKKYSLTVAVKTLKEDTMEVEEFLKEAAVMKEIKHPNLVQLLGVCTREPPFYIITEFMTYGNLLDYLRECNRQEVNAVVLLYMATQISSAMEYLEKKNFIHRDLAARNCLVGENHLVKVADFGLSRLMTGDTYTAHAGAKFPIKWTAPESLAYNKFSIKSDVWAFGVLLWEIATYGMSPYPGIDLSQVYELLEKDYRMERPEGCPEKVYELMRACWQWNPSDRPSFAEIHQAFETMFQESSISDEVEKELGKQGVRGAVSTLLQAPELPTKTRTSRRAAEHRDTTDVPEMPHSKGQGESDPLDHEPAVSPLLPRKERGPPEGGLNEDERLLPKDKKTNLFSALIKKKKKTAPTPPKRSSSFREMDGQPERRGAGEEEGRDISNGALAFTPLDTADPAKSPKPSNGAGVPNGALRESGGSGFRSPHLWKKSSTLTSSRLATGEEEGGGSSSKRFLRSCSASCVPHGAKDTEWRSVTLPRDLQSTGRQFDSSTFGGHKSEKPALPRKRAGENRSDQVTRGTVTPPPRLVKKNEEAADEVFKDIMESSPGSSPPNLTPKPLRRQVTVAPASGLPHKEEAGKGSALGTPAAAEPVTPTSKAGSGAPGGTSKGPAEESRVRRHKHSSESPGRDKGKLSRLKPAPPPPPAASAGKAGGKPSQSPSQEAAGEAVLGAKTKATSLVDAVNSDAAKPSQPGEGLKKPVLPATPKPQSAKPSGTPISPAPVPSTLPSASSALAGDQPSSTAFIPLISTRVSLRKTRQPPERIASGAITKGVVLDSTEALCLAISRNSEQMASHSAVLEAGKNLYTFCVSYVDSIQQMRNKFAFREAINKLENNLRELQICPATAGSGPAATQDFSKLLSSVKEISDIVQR
# runConditions: Compound concentration 20.0 uM
# Description: Thermal Shift Assay. Domain: start/stop: S229-K512
Recorded ΔTm for the following compounds
Answer format: numeric, °C implied, no suffix.

>  <compound>
Cc1c(CN2CCC(Nc3ncnc4sc(CC(F)(F)F)cc34)CC2)ccc2c1cc(C#N)n2Cc1cn[nH]c1

>  <ΔTm (°C)>
0.97

$$$$
>  <compound>
O=C(Nc1cc(C(F)F)ns1)Nc1cc(F)ncc1CO

>  <ΔTm (°C)>
0.52

$$$$
>  <compound>
CNC(=O)c1cc(Nc2ccnc(Nc3ccc(CCNC(=O)OC(C)(C)C)cc3)n2)n[nH]1

>  <ΔTm (°C)>
0.52

$$$$
>  <compound>
Cc1nccn1CC1CCc2c(c3ccccc3n2C)C1=O (stereo not given)

>  <ΔTm (°C)>
0.4

$$$$
>  <compound>
CCCOc1cc(OCCCCN(C)C)cc(Oc2cc3c(cc2NS(=O)(=O)c2ccc(OC)c(OC)c2)n(C)c(=O)n3C)c1

>  <ΔTm (°C)>
0.57

$$$$

(Q) Endpoint output: ΔTm of O=C1CCc2cc(OCCCCc3nnnn3C3CCCCC3)ccc2N1 . Value?
(A) 0.01

(Q) Any idea what its ΔTm is? The compound is Cn1cc(C(=O)Nc2ccc([C@@H]3C[C@H]3NCC3CC3)cc2)cn1
(A) 0.52

(Q) Could you share which ΔTm value was measured for O=c1[nH][nH]c(=O)c2cc(OCc3ccccc3F)ccc12 ?
(A) 3.37

(Q) Can you look up the measured ΔTm of O=c1cc(-c2ccc(O)cc2)oc2c(CN3CCN(Cc4cccs4)CC3)c(O)cc(O)c12 for me?
(A) 2.39

(Q) Quick one: ΔTm for CC(C)(C)NS(=O)(=O)c1cccc2c(NC(=O)[C@H](Cc3ccccc3)NC(=O)C3CCCCC3)cccc12 ?
(A) 0.13

(Q) Query (compound): CNc1nccc(CN([C@H]2CC[C@H](N)CC2)S(=O)(=O)c2ccc(S(=O)(=O)N(Cc3ccc(Cl)cc3)C3CCCC3)cc2)n1 ; field requested: ΔTm
(A) -0.6

(Q) GET /values?readout=ΔTm&item= CN1CCN(c2cc(C(=O)Nc3ncc(SCc4cccc(C(F)(F)F)c4)s3)ccn2)CC1
(A) 3.36

(Q) Need ΔTm of Cc1cc(C)cc(Oc2ccc(CNC(=O)[C@H](C)N)cc2C)c1 , thanks.
(A) 1.83

(Q) What measured ΔTm goes with CNC(=O)O[C@H]1COc2ccc(N3CCN(C4COC4)CC3)cc2[C@@H]1NC(=O)c1ccc(F)cc1 ?
(A) 0.28

(Q) Looking for the measured ΔTm of N=C(N)N/N=C/c1cccc(Cl)c1Cl , can you help?
(A) 0.36

----------
# assayTarget: Casein kinase I isoform delta (Homo sapiens)
# runConditions: Compound concentration 20.0 uM
# Description: Thermal Shift Assay. Domain: start/stop: M1-K294
Non-standard residues stand in square brackets, D forms with d. Residues, ends and D or L forms follow the SMILES beside them. *: point of attachment. Benzoyl(4-tBu) = CC(C)(C)c1ccc(C(=O)*)cc1; Lys(Et2) = CCN(CC)CCCC[C@H](N)C(=O)O
readoutLabel: ΔTm (°C)
Value expressed in °C; do not type the unit.

The following compounds have reported results that may help.
>  <compound>
CCCCCCNC(=O)n1cc(F)c(=O)[nH]c1=O

>  <assayTarget>
Casein kinase I isoform delta (Homo sapiens)

>  <ΔTm, °C>
-0.3

$$$$
>  <compound>
CCN(CC)CCCC[C@H](NC(=O)[C@H](CC(C)C)NC(=O)[C@H](C)NC(=O)[C@H](Cc1ccccc1)NC(=O)c1ccc(C(C)(C)C)cc1)C(=O)N[C@@H](CO)C(=O)OC ({Benzoyl(4-tBu)}-FAL[Lys(Et2)]S-OMe)

>  <assayTarget>
Casein kinase I isoform delta (Homo sapiens)

>  <ΔTm, °C>
0.5

$$$$
>  <compound>
Nc1ccc(-c2cccs2)cc1NC(=O)c1ccc2nc(N3CCNCC3)ccc2c1

>  <assayTarget>
Casein kinase I isoform delta (Homo sapiens)

>  <ΔTm, °C>
0.14

$$$$
>  <compound>
O=C(O)c1cccc(-c2ccc(-c3cn(C(=O)N4CCCCC4Cc4ccccc4)nn3)cc2)c1 (stereo not drawn)

>  <assayTarget>
Casein kinase I isoform delta (Homo sapiens)

>  <ΔTm, °C>
-4.82

$$$$
>  <compound>
C/C=C1\NC(=O)[C@H]2CSSCC/C=C/[C@H](CC(=O)N[C@H](C(C)C)C(=O)N2)OC(=O)[C@H](C(C)C)NC1=O

>  <assayTarget>
Casein kinase I isoform delta (Homo sapiens)

>  <ΔTm, °C>
-0.77

$$$$

(Q) Which ΔTm value belongs to O=C1C(=O)N(Cc2ccccc2)c2ccc(S(=O)(=O)N3CCC[C@H]3COc3ccc(C(F)(F)F)cc3)cc21 ?
(A) 0.54

(Q) Which ΔTm value belongs to NC(=O)c1cc(F)cc2c1C(=O)N(C1CCN(C3CCC(F)(F)CC3)CC1)C2 ?
(A) 0.25

(Q) Could you share which ΔTm value was measured for CCc1c(C)nc(-c2ccc(Cl)s2)nc1Nc1ccc(CC(=O)O)cc1 ?
(A) -0.04

This collection of values is drawn from ChEMBL document CHEMBL5724796.
